- EXPERIMENTAL_TARGET: Bax (Homo sapiens)
- Sequence (Q07812 whole entry, species assumed, the tested form may be a part): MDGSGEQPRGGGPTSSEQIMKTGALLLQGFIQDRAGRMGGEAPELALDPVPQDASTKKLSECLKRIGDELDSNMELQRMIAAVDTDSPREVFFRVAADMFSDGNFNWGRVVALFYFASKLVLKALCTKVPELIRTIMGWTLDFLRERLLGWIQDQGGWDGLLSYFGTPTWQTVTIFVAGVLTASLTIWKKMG
- PROCEDURE_SUMMARY: Co-immunoprecipitation of GFP-Humanin fusion polypeptides with Bax in transfected cells
- Type: binding
- Parameters: expressed in transfected cells; host or cells: HEK293T; key: +: ability to bind Bax was determined by co-immunoprecipitation assay; −: lacked Bax-binding activity
- COND: GFP-fusion polypeptides, co-immunoprecipitation
No end group written: not given here.

| SUBSTANCE | EXPERIMENTAL_TARGET | Bax binding |
| --- | --- | --- |
| 7-24: GFP-fusion of Humanin truncation, residues 7-24 (SCLLLLTSEIDLPVKRRA; also: fused to GFP; UniProt Q8IVG9 7-24, looked up, fragment) | Bax (Homo sapiens) | + |
| 3-18: GFP-fusion of Humanin truncation, residues 3-18 (PRGFSCLLLLTSEIDL; also: fused to GFP; UniProt Q8IVG9 3-18, looked up, fragment) | Bax (Homo sapiens) | + |
| GFP-HN(C8P): mutant Humanin, cysteine at position 8 replaced with proline, fused to GFP (MAPRGFSPLLLLTSEIDLPVKRRA; also: fused to GFP; UniProt Q8IVG9 1-24, looked up, variant C8P) | Bax (Homo sapiens) | − |
| 1-17: GFP-fusion of Humanin truncation, residues 1-17 (MAPRGFSCLLLLTSEID; also: fused to GFP; UniProt Q8IVG9 1-17, looked up, fragment) | Bax (Homo sapiens) | + |
| 3-24: GFP-fusion of Humanin truncation, residues 3-24 (PRGFSCLLLLTSEIDLPVKRRA; also: fused to GFP; UniProt Q8IVG9 3-24, looked up, fragment) | Bax (Homo sapiens) | + |
| L9R: GFP-fusion of Humanin site-specific mutant L9R (MAPRGFSCRLLLTSEIDLPVKRRA; also: fused to GFP; UniProt Q8IVG9 1-24, looked up, variant L9R) | Bax (Homo sapiens) | − |
| 3-19: GFP-fusion of Humanin truncation, residues 3-19 (PRGFSCLLLLTSEIDLP; also: fused to GFP; UniProt Q8IVG9 3-19, looked up, fragment) | Bax (Homo sapiens) | + |
| 1-15: GFP-fusion of Humanin truncation, residues 1-15 (MAPRGFSCLLLLTSE; also: fused to GFP; UniProt Q8IVG9 1-15, looked up, fragment) | Bax (Homo sapiens) | − |
| 3-17: GFP-fusion of Humanin truncation, residues 3-17 (PRGFSCLLLLTSEID; also: fused to GFP; UniProt Q8IVG9 3-17, looked up, fragment) | Bax (Homo sapiens) | + |
| 10-24: GFP-fusion of Humanin truncation, residues 10-24 (LLLTSEIDLPVKRRA; also: fused to GFP; UniProt Q8IVG9 10-24, looked up, fragment) | Bax (Homo sapiens) | − |
